Source: PubChem BioAssay (NCI)

- System: KM12 colon
- Experiment Notes: NCI tumour cell line growth inhibition, 384-well format; in the data active = GI50 below about 0.43 µM; inactive = the rest
Classes used: active, inactive

[
  {
    "Compound": "COC1CCC(n2c([C@@H]3CCCC(=O)N3c3ccc(F)c(F)c3)nc3cc(-c4c(C)noc4C)ccc32)CC1 (some centres undefined)",
    "System Under Test": "KM12 colon",
    "Label": "inactive"
  },
  {
    "Compound": "CCCCc1nc2cc(/C=C/C(=O)NO)ccc2n1CCN(CC)CC",
    "System Under Test": "KM12 colon",
    "Label": "active"
  },
  {
    "Compound": "CC(C)[C@@H](CS(=O)(=O)C(C)C)N1C(=O)[C@@](C)(CC(=O)O)C[C@H](c2cccc(Cl)c2)[C@H]1c1ccc(Cl)cc1",
    "System Under Test": "KM12 colon",
    "Label": "active"
  },
  {
    "Compound": "NCC(=O)CCC(=O)O",
    "System Under Test": "KM12 colon",
    "Label": "inactive"
  }
]

---

- System: HOP-92 NSCLC
- Experiment Notes: NCI tumour cell line growth inhibition, 384-well format
Readings of TGI for the listed compounds

[
  {
    "Compound": "CCCCc1nc2cc(/C=C/C(=O)NO)ccc2n1CCN(CC)CC",
    "Value Operator": "=",
    "TGI [µM]": 0.518
  },
  {
    "Compound": "NCC(=O)CCC(=O)O",
    "Value Operator": ">",
    "TGI [µM]": 100
  },
  {
    "Compound": "COC1CCC(n2c([C@@H]3CCCC(=O)N3c3ccc(F)c(F)c3)nc3cc(-c4c(C)noc4C)ccc32)CC1 (some centres undefined)",
    "Value Operator": "=",
    "TGI [µM]": 18.8
  },
  {
    "Compound": "CC(C)[C@@H](CS(=O)(=O)C(C)C)N1C(=O)[C@@](C)(CC(=O)O)C[C@H](c2cccc(Cl)c2)[C@H]1c1ccc(Cl)cc1",
    "Value Operator": "=",
    "TGI [µM]": 40.4
  }
]
